target: Casein kinase I isoform alpha (Homo sapiens); conditions: at 0.1 µM;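 note: values are the mean percent inhibition of CK1a, averaged over measurements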
measurement label: inhibition (%)
Use % as the unit, but write only the number.

q: Quick one: inhibition of CN1CCC(n2cnc(-c3ccc(F)cc3)c2-c2ccnc(N)n2)CC1 ?
a: 30.1

q: Quick one: inhibition of CN(C)CCOc1ccc(-c2nc(-c3ccncc3)c(-c3ccc4c(c3)CC/C4=N\O)[nH]2)cc1 ?
a: 3.41

q: Quick one: inhibition of CC(=O)Nc1cccc(C#Cc2cncnc2Nc2ccc(OCc3cccc(F)c3)c(Cl)c2)c1 ?
a: -1.79

q: Quick one: inhibition of Fc1ccc(-c2nn3ccccc3c2-c2ccncc2)cc1 ?
a: 13.7

q: Quick one: inhibition of COc1cc2ncn(-c3cc(OCc4ccccc4C(F)(F)F)c(C(=O)N(C)C)s3)c2cc1OC ?
a: 0.11

q: Quick one: inhibition of CC(C)COC(=O)c1ccc2c(c1)/C(=C/Nc1ccc(S(N)(=O)=O)cc1)C(=O)N2 ?
a: -2

q: Quick one: inhibition of c1ccc(-c2nc3n(c2-c2ccc4c(c2)OCO4)CCC3)nc1 ?
a: 22.2

q: Quick one: inhibition of Fc1ccc(-c2nn3ncccc3c2-c2ccnc(Nc3ccc4c(c3)OCCO4)n2)cc1 ?
a: 39.5

q: Quick one: inhibition of Clc1ccc(-c2nn3ncccc3c2-c2ccnc(Nc3ccccc3)n2)cc1 ?
a: 5.52

q: Quick one: inhibition of O=C(Nc1n[nH]c2cc(-c3ccc(F)cc3)ccc12)C1CC1 ?
a: 2.37

q: Quick one: inhibition of COc1cc2c(cc1Nc1nc(Nc3ccsc3C(N)=O)c3cc[nH]c3n1)N(C(=O)CN(C)C)CCC2(C)C ?
a: 4.27

q: Quick one: inhibition of COc1ccc2c(-c3ccnc(Nc4cccc(OC(F)(F)F)c4)n3)cnn2n1 ?
a: 2.85

q: Quick one: inhibition of Cc1cccc(Nc2ncc(-c3ccccc3)o2)c1 ?
a: 3.35

q: Quick one: inhibition of CCNC(=O)O[C@H]1CN[C@H](C#Cc2cc3ncnc(Nc4ccc(OCc5cccc(F)c5)c(Cl)c4)c3s2)C1 ?
a: 1.8

q: Quick one: inhibition of Nc1nc(-c2ccc(F)cc2)c(-c2ccc3ncccc3n2)s1 ?
a: 3.47

q: Quick one: inhibition of CCn1c(-c2nonc2N)nc2c(C#CC(C)(C)O)ncc(OC3CCNCC3)c21 ?
a: 2.3

q: Quick one: inhibition of Nc1ncc(-c2cccc(S(N)(=O)=O)c2)c2scc(-c3ccc(F)c(Cl)c3)c12 ?
a: 6.19

q: Quick one: inhibition of COc1ccc(-c2nn3ncccc3c2-c2ccnc(Nc3ccc4c(c3)OCCO4)n2)cc1 ?
a: 0

q: Quick one: inhibition of COc1cc(/C=N/Nc2ncnc3[nH]ncc23)ccc1O ?
a: 3.78

q: Quick one: inhibition of CCCN(CCS(C)(=O)=O)Cc1ccc(-c2ccc3ncnc(Nc4ccc(OCc5cccc(F)c5)c(Cl)c4)c3c2)o1 ?
a: 1.49

q: Quick one: inhibition of CCn1c(-c2nonc2N)nc2c(C#CC(C)(C)O)nc(OC[C@H](N)c3ccccc3)cc21 ?
a: 2.03

q: Quick one: inhibition of N#Cc1c(NC(=O)c2ccc(F)cc2)sc2c1CCCC2 ?
a: -0.68

q: Quick one: inhibition of Nc1nc(-c2cccc(Cl)c2)c(-c2ccc3ncccc3n2)s1 ?
a: 1.48

q: Quick one: inhibition of O=C(O[C@H]1CN[C@H](C#Cc2cc3ncnc(Nc4ccc(Cc5ccccc5)cc4)c3s2)C1)N1CCOCC1 ?
a: 0.51

q: Quick one: inhibition of COc1cc(N2CCN(C(C)C)CC2)ccc1Nc1nc(Nc2ccc(F)cc2C(N)=O)c2cc[nH]c2n1 ?
a: 12.4

q: Quick one: inhibition of CCn1c(-c2nonc2N)nc2ccccc21 ?
a: 2.92

q: Quick one: inhibition of c1ccc(COc2ccc(Nc3ncnc4ccc(-c5ccco5)cc34)cc2)cc1 ?
a: -0.74

q: Quick one: inhibition of CC(C)(CO)CNC(=O)c1ccc2c(c1)/C(=N/Nc1ccc(S(N)(=O)=O)cc1)C(=O)N2 ?
a: -1.33

q: Quick one: inhibition of NS(=O)(=O)c1ccc(Nc2ncc(-c3ccccc3)o2)cc1 ?
a: 1.88

q: Quick one: inhibition of Fc1ccc(-c2cc(-c3c[nH]nc3-c3ccccn3)ccn2)cc1 ?
a: 3.27

q: Quick one: inhibition of CCOc1ccc2c(-c3ccnc(Nc4cccc(C(F)(F)F)c4)n3)cnn2n1 ?
a: 0.42

q: Quick one: inhibition of CCn1c(-c2nonc2N)nc2cnc(Oc3cccc(NC(=O)c4ccc(N(C)C)cc4)c3)cc21 ?
a: 2.09

q: Quick one: inhibition of CC1=C(C(=O)Nc2cc(Cl)c3[nH]ncc3c2)C(c2ccc(C(F)(F)F)cc2)CC(=O)N1 (centres undefined) ?
a: 1.86

q: Quick one: inhibition of COC(=O)Nc1nc2ccc(Oc3ccc(NC(=O)Nc4cccc(Cl)c4)cc3)cc2[nH]1 ?
a: 0.11

q: Quick one: inhibition of CNC(=O)c1cncc(/C=C/c2ccccc2Cl)c1 ?
a: 0.76

q: Quick one: inhibition of COc1ccc(-c2cc3c(N)ncnc3o2)cc1 ?
a: -2.35

q: Quick one: inhibition of CN1CCC(n2cnc(-c3ccc(F)cc3)c2-c2ccnc(Nc3ccccc3)n2)CC1 ?
a: 53.5

q: Quick one: inhibition of COc1ccc(-c2oc3ncnc(N)c3c2-c2ccc(NC(=O)Nc3cc(C(F)(F)F)ccc3F)cc2)cc1 ?
a: 3.27

q: Quick one: inhibition of FC(F)(F)c1cccc(-c2nn3ncccc3c2-c2ccnc(Nc3ccc4c(c3)OCCO4)n2)c1 ?
a: 1.53
